# reported Eff. %; entries follow
Test system: Plasmopara viticola
Assay: Plasmopara test (grapevine)/protective
Type: in vivo
Details: grapevine young plants, protective spray, active ingredient concentration 10 ppm, evaluation 6 days after inoculation; 0% = control, 100% = no infection
I only need the number, in %, no unit after it.

Example compounds with recorded Eff. %:
{"compound": "CC(=NO)c1cccc(C2CC(c3csc(C4CCN(C(=O)Cn5nc(C(F)(F)F)cc5C)CC4)n3)=NO2)c1 (mixture of isomers)", "subject_of_test": "Plasmopara viticola", "assay_readout": "Eff. %", "observed_value": 100}
{"compound": "C#CCOCc1ccccc1C1CC(c2csc(C3CCN(C(=O)Cn4nc(C(F)(F)F)cc4C)CC3)n2)=NO1 (racemic)", "subject_of_test": "Plasmopara viticola", "assay_readout": "Eff. %", "observed_value": 94}
{"compound": "Cc1cc(C(F)F)nn1CC(=O)N1CCC(c2nc(C3=NOC(c4ccccc4OCC#N)C3)cs2)CC1 (stereo not shown)", "subject_of_test": "Plasmopara viticola", "assay_readout": "Eff. %", "observed_value": 93}

Pending compound:
Value sought: Eff. %, system Plasmopara viticola, item CC(=O)OCc1ccccc1C1CC(c2csc(C3CCN(C(=O)Cn4nc(C(F)F)cc4C(F)F)CC3)n2)=NO1 (racemic) . Result: 92
